// data source = patent US20260176365A1

targetOfAssay: hGP130-his (Sino Biological, Catalog# 10974) (human) (UniProt P40189)
Sequence (P40189 23-619): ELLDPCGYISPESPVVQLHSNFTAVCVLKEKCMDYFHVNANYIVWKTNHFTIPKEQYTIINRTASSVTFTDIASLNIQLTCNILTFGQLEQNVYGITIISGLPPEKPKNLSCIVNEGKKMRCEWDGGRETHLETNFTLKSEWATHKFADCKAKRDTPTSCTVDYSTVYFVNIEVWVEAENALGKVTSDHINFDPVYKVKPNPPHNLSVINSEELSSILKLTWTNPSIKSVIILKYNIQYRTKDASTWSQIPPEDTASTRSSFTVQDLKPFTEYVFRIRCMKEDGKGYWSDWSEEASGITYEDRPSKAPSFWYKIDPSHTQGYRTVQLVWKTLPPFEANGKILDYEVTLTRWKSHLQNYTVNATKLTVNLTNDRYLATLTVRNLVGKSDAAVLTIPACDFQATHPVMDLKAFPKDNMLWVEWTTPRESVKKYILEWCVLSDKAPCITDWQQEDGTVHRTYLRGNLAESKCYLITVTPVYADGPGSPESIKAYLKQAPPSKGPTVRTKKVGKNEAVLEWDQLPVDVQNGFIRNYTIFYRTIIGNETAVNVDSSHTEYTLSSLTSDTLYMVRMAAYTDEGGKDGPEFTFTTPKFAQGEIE
testDetails: SPR (Biacore T200), Mono-Fc VHH captured on Protein A chip, hGP130-his in solution, 1:1 fit
readoutLabel: koff (s⁻¹)
State the answer as a number, implicitly in s⁻¹.

Use these answered entries as a reference point.
mgp130_VHH48 Mono-Fc VHH (Fc fusion, not shown: a dimerising Fc or GST) QVQLQESGGALVQPGGSLRLSCAASGFTFSYYAMKWVRQAPGKGLEWVSSISGGGGATYYADSVKGRFTISRDNTNDTLYLQMNSLKTEDTAVYYCAAQNLDYRGQGTQVTVSS = 0.0018
mgp130_VHH5 Mono-Fc VHH (Fc fusion, not shown: a dimerising Fc or GST) QVQLQESGGGSVQAGGSLRLSCVISGFTYRQTFMGWFRQVVGKEREGVAAISTGGGSTIYADSVKGRFTISQDSSKDTVYLEMNGLKLEDTGMYYCAASTVITSESINRNLYQYWGQGTQVTVSS = 0.0081
mgp130_VHH16 Mono-Fc VHH (Fc fusion, not shown: a dimerising Fc or GST) QVQLQESGGGLVQPGGSLRLSCAASGFTFRNYAMSWVRQAPGKGLEWVSAINSGGGSTYYADSVKGRFTISRDNAKNTLYLQMNSLKPEDTAMYYCAKHVTGDYDPSLRYEYNYWSQGTQVTVSS = 0.00036
mgp130_VHH44 Mono-Fc VHH (Fc fusion, not shown: a dimerising Fc or GST) QVQLQESGGGLVQPGGSLRLSCTASGFTFNSAHLKWERQPPGKGLEWVSFITNGGASTGYADSVKGRFTISRDDAKNTLYLQMNNLKTEDTAVYYCATGGLRGQGTQVTVSS = 0.0012
mgp130_VHH6 Mono-Fc VHH (Fc fusion, not shown: a dimerising Fc or GST) QVQLQESGGGLVQPGGSLRLSCAASGFTLSTYWMYWVRQAPGKGPEWVSAVSRGGFNTYYADSVKGRFTISRDNAKNTVYLQMNSLKPEDTAVYYCMSSVSFYGWPPDRVPSPTGQGTQVTVSS = 0.03

-- ask Determine its reported koff: mgp130_VHH13 Mono-Fc VHH (Fc fusion, not shown: a dimerising Fc or GST) QVQLQESGGGSVQPGGSLRLSCAASGFTFSTYDMSWVRQAPGKGLEWVSTINYSGSSTYYVDSVLGRFTIARDNAKNTLYLQMNNLQTEDTAVYYCASVKERRSNGHPIVFGDRGQGTQVTVSS
-- reply 0.0037
